Origin of measurements: patent US20200331904A1

# Tested on: Matricaria inodora
# ASSAY PROCEDURE: Pre-emergence herbicidal efficacy, MATIN
# Assay type: in vivo
# CONDITION LABEL: application rate 320 g/ha, scored visually after about 3 weeks
Listed next: entries and their corresponding Herbicidal efficacy against MATIN.
Output spec: scalar in %, unitless text.

The examples below pair each entry with its known result.
* O=S1(=O)CCCCn2nc(NC3CCc4ccccc43)nc21 (stereo not shown) [Example I-236] | 100
* CS(=O)(=O)N1CCCn2nc(NC3CCCc4ccccc43)nc21 (stereo not shown) [Example I-305] | 100
* Cc1ccc2c(c1)[C@H](Nc1nc3n(n1)CCN(C(=O)c1ccccc1Cl)C3)CCC2 [Example I-184] | 90

Entry under review: Cc1ccc2c(c1)[C@H](Nc1nc3n(n1)CCN(C(=O)c1ccccc1Cl)C3)CC2 [Example I-177] . Reported Herbicidal efficacy against MATIN?
90

Entry under review: Cc1ccc2c(c1)[C@H](Nc1nc3n(n1)CCN(C(=O)c1ccccc1)C3)CCC2 [Example I-181] . Reported Herbicidal efficacy against MATIN?
100

Entry under review: O=S(=O)(C1CC1)N1CCn2nc(NC3CCCc4ccccc43)nc2C1 (stereo not shown) [Example I-087] . Reported Herbicidal efficacy against MATIN?
100

Entry under review: c1ccc2c(c1)CCC2Nc1nc2n(n1)CCCCS2 (stereo not shown) [Example I-212] . Reported Herbicidal efficacy against MATIN?
100

---

# Test system: Stellaria media
# ASSAY PROCEDURE: Post-emergence herbicidal efficacy, STEME
# Format: in vivo
# CONDITION LABEL: application rate 320 g/ha, rated visually after about 3 weeks
MEASUREMENT KIND: Herbicidal efficacy against STEME (%)
Output spec: scalar in %, unitless text.

• Cc1ccc2c(c1)C(Nc1nc3n(n1)CCC(=O)N3C)CCC2 (centres unmarked) = 80
• Cc1ccc2c(c1)[C@H](Nc1nc3n(n1)CCCCS3)CC2 = 100
• Cc1ccc2c(c1)C(Nc1nc3n(n1)CCCCS3)CC2 (centres unmarked) = 100
• Cc1ccc2c(c1)C(Nc1nc3n(n1)CCCCS3)C(C)C2 (centres unmarked) = 100
• Cc1ccc2c(c1)[C@H](Nc1nc3n(n1)CCCCS3)CCC2 = 90

Entry under review: Cc1ccc2c(c1)C(Nc1nc3n(n1)CCCCS3(=O)=O)CC2 (centres unmarked) . Reported Herbicidal efficacy against STEME?
100

Entry under review: Cc1ccc2c(c1)C(Nc1nc3n(n1)CCCCS3(=O)=O)C(C)C2 (centres unmarked) . Reported Herbicidal efficacy against STEME?
90

Entry under review: `c1ccc2c(c1)CCC[C@H]2Nc1nc2n(n1)CCCCS2` . Reported Herbicidal efficacy against STEME?
100

---

# Test system: Matricaria inodora
# ASSAY PROCEDURE: Pre-emergence herbicidal efficacy, MATIN
# Type: in vivo
# CONDITION LABEL: application rate 320 g/ha, scored visually after about 3 weeks
Listed next: entries and their corresponding Herbicidal efficacy against MATIN.
Output spec: scalar in %, unitless text.

- [O-][S+]1CCCCn2nc(NC3CCOc4ccccc43)nc21 (stereo not drawn) [Example I-247]: 100
- O=C(C1CC1)N1CCn2nc(N[C@@H]3CCc4ccccc43)nc2C1 [Example I-160]: 90
- CC(=O)N1CCn2nc(NC3CCCc4ccccc43)nc2C1 (stereo not drawn) [Example I-061]: 100
- Cc1ccc2c(c1)[C@H](Nc1nc3n(n1)CCN(S(=O)(=O)Cc1ccccc1)C3)CCC2 [Example I-202]: 90
- CS(=O)(=O)N1CCn2nc(NC3CCCc4ccccc43)nc2C1 (stereo not drawn) [Example I-097]: 100

Entry under review: O=S1(=O)CCCn2nc(NC3CCCc4ccccc43)nc21 (stereo not drawn) [Example I-252] . Reported Herbicidal efficacy against MATIN?
100

Entry under review: O=C(C1CC1)N1CCn2nc(NC3CCCc4ccccc43)nc2C1 (stereo not drawn) [Example I-060] . Reported Herbicidal efficacy against MATIN?
100

Entry under review: [O-][S+]1CCCCn2nc(NC3CCc4ccccc43)nc21 (stereo not drawn) [Example I-250] . Reported Herbicidal efficacy against MATIN?
100

Entry under review: O=C1CCn2nc(NC3CCOc4ccccc43)nc2N1Cc1cccc(C(F)(F)F)c1 (stereo not drawn) [Example I-273] . Reported Herbicidal efficacy against MATIN?
80
